Reference for the values: a melting point compilation (Tetko et al.; mined from patent text by program, amines drawn as free bases though some values may be those of a salt)

Measure name: melting point (°C)

>  <Molecular string>
COc1ccc2c(c1OS(=O)(=O)C(F)(F)F)COCc1cc(OC)c(OC)c(OC)c1-2

>  <Measured>
164

$$$$
>  <Molecular string>
Cc1ccc(C(=O)S[C@@H](C)C(=O)N2CSC[C@H]2C(=O)O)cc1

>  <Measured>
166

$$$$

----------
>  <Molecular string>
CCCCCc1ccc(-c2ccc(-c3ccc(C)cc3)s2)cc1F

>  <melting point [°C]>
115

$$$$
>  <Molecular string>
O=c1c2ccccc2ncn1CCN1CCC(c2c[nH]c3ccccc23)CC1

>  <melting point [°C]>
90

$$$$
>  <Molecular string>
O=C1OC(=O)c2nc3ccc(OC(F)F)cc3cc21

>  <melting point [°C]>
158

$$$$
>  <Molecular string>
Cc1cc(Nc2nc(-c3ccccc3)nc3ncccc23)[nH]n1

>  <melting point [°C]>
234

$$$$

----------
>  <Compound>
Nc1cc(-c2c[nH]c3ncccc23)c2ccccc2n1

>  <melting point>
244 °C

$$$$
>  <Compound>
CN1CCn2c(-c3ccc(F)c(-c4ccc(F)cc4C#N)c3)cnc2C1=O

>  <melting point>
224 °C

$$$$
>  <Compound>
Cc1nc(Cl)c(C#N)nc1C

>  <melting point>
83 to 85 °C

$$$$
>  <Compound>
CNc1c([N+](=O)[O-])cc(C(C)(C)C)cc1[N+](=O)[O-]

>  <melting point>
129 to 130 °C

$$$$
>  <Compound>
CCCCCn1c2ccc(C(=O)NC34CC5CC(CC(C5)C3)C4)cc2c2ccc(OC)cc21

>  <melting point>
141 to 142 °C

$$$$
>  <Compound>
CO/C=C(/C(=O)OC)c1ccccc1CSc1nc2ccccc2s1

>  <melting point>
77 to 78 °C

$$$$
>  <Compound>
COc1cc(C)nc(NC(=O)NS(=O)(=O)c2ccsc2S(C)(=O)=O)n1

>  <melting point>
204 to 206 °C

$$$$
>  <Compound>
c1ccc(-c2cn3c(n2)sc2cnccc23)cc1

>  <melting point>
183 to 185 °C

$$$$
>  <Compound>
Nc1nc(F)cc(OCc2ccccc2)n1

>  <melting point>
96 to 98 °C

$$$$
>  <Compound>
OC(CNC1CCc2ccccc2C1)COc1cccc2c1CCCC2 (stereo unspecified)

>  <melting point>
90 to 93 °C

$$$$
>  <Compound>
Nc1nnc(N2CCN(CCOc3ccccc3)CC2)[nH]1

>  <melting point>
131 to 133 °C

$$$$

----------
Below is a list of entries, each paired with its recorded melting point value.

>  <Compound>
CSc1nn2c(N)cc(C)nc2c1S(=O)(=O)c1ccc(Br)cc1

>  <melting point>
> 230 °C

$$$$
>  <Compound>
CCOc1cccc(CNC(=O)c2nc3scc(COCc4ccc(C(=O)O)cc4)c3c(=O)[nH]2)c1

>  <melting point>
240 °C

$$$$
>  <Compound>
CCOc1ccccc1N1CCN(Cc2nc3ccccc3[nH]2)CC1

>  <melting point>
95 to 100 °C

$$$$
>  <Compound>
O=C1CN2C(=O)CCC2N1 (centres undefined)

>  <melting point>
155 to 157 °C

$$$$
>  <Compound>
CC(C)(c1ccc(Oc2cccc(N)c2)cc1)c1ccc(C(C)(C)c2ccc(Oc3cccc(N)c3)cc2)cc1

>  <melting point>
138 to 140 °C

$$$$
>  <Compound>
COc1cccc([C@H]2O[C@H](CC(=O)Nc3ccc(CCC(=O)O)cc3)C(=O)N(CC(C)(C)COC(C)=O)c3ccc(Cl)cc32)c1OC

>  <melting point>
144 to 146 °C

$$$$
>  <Compound>
COC(=O)c1cc(C(=O)c2c(C)c(NC(=O)c3cccc(OC(C)=O)c3)c3ccccn23)ccc1N

>  <melting point>
210 °C

$$$$
>  <Compound>
C[C@H]1c2cc(F)ccc2-c2ccc(F)cc2N1S(=O)(=O)c1ccc(O)cc1

>  <melting point>
194 to 196 °C

$$$$
>  <Compound>
COC1C(O)C(CO)OC1n1cnc2c(N)nc(N)nc21 (centres undefined)

>  <melting point>
133 to 135 °C

$$$$

----------
>  <Compound>
CC(C)(C)OC(=O)Nc1ccc(-c2ccc(OCc3ccccc3)nc2)cc1N

>  <melting point>
176 to 177 °C

$$$$
>  <Compound>
CN1CCC(C(=O)Nc2cccc(-c3ccnc4c(C(=O)c5cccs5)cnn34)c2)CC1

>  <melting point>
236 °C

$$$$
>  <Compound>
Nc1cc(-c2ccncc2)cc2nc(-c3ccccc3)nn12

>  <melting point>
207 to 210 °C

$$$$
>  <Compound>
O=C(O)COc1ccc(OCCCCc2ccccc2)cc1

>  <melting point>
116 to 117 °C

$$$$
>  <Compound>
CN1C(=O)Cc2cccc(Cl)c21

>  <melting point>
111 to 113 °C

$$$$
>  <Compound>
O=c1[nH]c(=O)n(Cc2ccccc2)cc1C=NO

>  <melting point>
172 to 174 °C

$$$$
>  <Compound>
CC(C)c1cc(-c2ccc3c(c2)OCO3)nc2[nH]nc(N)c12

>  <melting point>
184 to 186 °C

$$$$
>  <Compound>
CCc1cc(N)c([N+](=O)[O-])cc1CC

>  <melting point>
63 to 65 °C

$$$$
>  <Compound>
CNC(=O)CNC(=O)c1ccc(C)c(-n2c(C)cc(OCc3ccccc3CNC(=O)Nc3cc(C(C)(C)C)nn3-c3ccc(O)c(Cl)c3)c(Cl)c2=O)c1

>  <melting point>
209 to 211 °C

$$$$
>  <Compound>
O=C(O)CCCC1Cc2ccc(F)cc2C1=O (stereo unspecified)

>  <melting point>
106 to 107 °C

$$$$
>  <Compound>
Cc1ccc(C)c(OCCCC(C)(C)C(=O)Nc2cccc(-c3nnc(C)o3)c2)c1

>  <melting point>
90 to 92 °C

$$$$
>  <Compound>
CCOC(=O)c1cc(NC(=O)NCC(=O)N2[C@@H](C(=O)OC(C)(C)C)CC[C@H]2c2ccccc2)ccc1O (racemic)

>  <melting point>
150 °C

$$$$
>  <Compound>
CNC(=O)ON=C1CCOc2ccccc21

>  <melting point>
123 to 126 °C

$$$$
>  <Compound>
c1ccc(C(c2ccc3nccnc3c2)n2cnnc2)cc1 (stereo unspecified)

>  <melting point>
98.1 °C

$$$$
>  <Compound>
CC1(C)CCc2c(ccc3c2C(=O)C(Cl)=C(Cl)C3=O)O1

>  <melting point>
158 to 160 °C

$$$$
>  <Compound>
CN(c1ccccc1)c1nc(Cl)nc(Cl)n1

>  <melting point>
132 °C

$$$$
>  <Compound>
CC(C)(C)c1cc(-c2ccc([N+](=O)[O-])cc2)cc(C(C)(C)C)c1O

>  <melting point>
157 to 160 °C

$$$$
>  <Compound>
Fc1ccc(C2CC3CCC(C3)C23CO3)cc1 (stereo unspecified)

>  <melting point>
178 to 180 °C

$$$$
>  <Compound>
CC/C(=C(\c1ccc(I)cc1)c1ccc(OCCCCCBr)cc1)c1ccccc1

>  <melting point>
78 to 80 °C

$$$$
>  <Compound>
CC(C)OCCCNc1c([N+](=O)[O-])cnc2cccnc12

>  <melting point>
62.5 to 63.5 °C

$$$$
>  <Compound>
Cc1cn(C)c2cc(NC(=O)c3ccc(C(C)(C)O)cc3)ncc12

>  <melting point>
196 to 197 °C

$$$$

----------
Overview of reported melting point across a group of compounds:

>  <Compound>
O=C(O)Cc1c(C(=O)O)c2cc(Oc3cccc(OC(F)(F)F)c3)ccc2n1-c1ccc(OC(F)(F)F)cc1

>  <melting point>
188 to 193 °C

$$$$
>  <Compound>
COc1cc(OC)cc(-c2ncoc2-c2ccc(OC(F)F)c(N)c2)c1

>  <melting point>
105 °C

$$$$
>  <Compound>
NC(=O)Cc1ccc2c(c1)sc1ccc(Cl)cc12

>  <melting point>
92 to 99 °C

$$$$
>  <Compound>
Cc1cc(-c2ccc(C(F)(F)F)cc2)cc(-c2cccc(-c3csc(N)n3)c2)n1

>  <melting point>
> 250 °C

$$$$
>  <Compound>
O=S(=O)(Nc1ccccc1/C=C/c1ccncc1)c1ccc(Cl)cc1

>  <melting point>
218 to 220 °C

$$$$
>  <Compound>
CCCOc1ccc(S(=O)(=O)NCc2ccncc2)cc1-c1nc2cc3nc[nH]c3cc2c(=O)[nH]1

>  <melting point>
189 to 190 °C

$$$$
>  <Compound>
CCCNCC1Cc2ccc(-c3ccc(=O)[nH]n3)cc2C1 (stereo unspecified)

>  <melting point>
144 to 146 °C

$$$$
>  <Compound>
O=CNc1cccc2ccccc12

>  <melting point>
134 to 135 °C

$$$$
>  <Compound>
Cn1cncc1C(O)(c1ccc(Cl)cc1)c1ccc2[nH]c(=O)cc(-c3cccnc3)c2c1 (stereo unspecified)

>  <melting point>
> 250 °C

$$$$
>  <Compound>
COC(OC)C(=O)NC1CCN(C[C@@]23C[C@@H](c4ccccc42)c2ccc(Cl)cc23)CC1

>  <melting point>
188 to 189 °C

$$$$
>  <Compound>
Cn1c(=O)c(-c2ccc(Cl)cc2Cl)cc2c3cc(I)ccc3n(C)c21

>  <melting point>
223 to 225 °C

$$$$
>  <Compound>
COc1cccc2c1CC(NC(=O)C(C)C)CC2 (stereo unspecified)

>  <melting point>
167 to 168 °C

$$$$
>  <Compound>
O=C(O)Cc1cc(C=Cc2ccccc2)ccc1O

>  <melting point>
202 °C

$$$$
>  <Compound>
O=C(O)c1cn(-c2ccc(OC(F)(F)F)c(Cl)c2)cn1

>  <melting point>
230 to 231 °C

$$$$
>  <Compound>
CN(C(=O)c1ccc2c(c1)nc(NC(=O)c1cccs1)n2CCCC(N)=O)C1CCCCC1

>  <melting point>
112 to 115 °C

$$$$
>  <Compound>
COC(=O)CCCc1cc2cc(C(F)(F)F)ccc2n1S(=O)(=O)c1cccc(C(C)C)c1

>  <melting point>
115 °C

$$$$
>  <Compound>
O=c1ccc2c([nH]1)CCN(Cc1ccccc1)C2

>  <melting point>
210 to 212 °C

$$$$
>  <Compound>
C[C@](O)(COc1ccc(F)cc1)C(=O)Nc1ccc(C#N)c(C(F)(F)F)c1

>  <melting point>
139 to 140 °C

$$$$
>  <Compound>
CC(C)=CCNc1ncnc2nc(NCCN)[nH]c12

>  <melting point>
96 to 102 °C

$$$$
>  <Compound>
CCON=C(CC)C1=C(O)CC(c2ccc(NC(C)=O)cc2)CC1=O (stereo unspecified)

>  <melting point>
135 to 136 °C

$$$$
>  <Compound>
COC(=O)NC=Cc1ccc(OCC(O)CNC(C)C)cc1 (stereo unspecified)

>  <melting point>
128 to 129 °C

$$$$
